Molecular target: human GPR120 (Homo sapiens, UniProt Q5NUL3)
Sequence (Q5NUL3 whole entry): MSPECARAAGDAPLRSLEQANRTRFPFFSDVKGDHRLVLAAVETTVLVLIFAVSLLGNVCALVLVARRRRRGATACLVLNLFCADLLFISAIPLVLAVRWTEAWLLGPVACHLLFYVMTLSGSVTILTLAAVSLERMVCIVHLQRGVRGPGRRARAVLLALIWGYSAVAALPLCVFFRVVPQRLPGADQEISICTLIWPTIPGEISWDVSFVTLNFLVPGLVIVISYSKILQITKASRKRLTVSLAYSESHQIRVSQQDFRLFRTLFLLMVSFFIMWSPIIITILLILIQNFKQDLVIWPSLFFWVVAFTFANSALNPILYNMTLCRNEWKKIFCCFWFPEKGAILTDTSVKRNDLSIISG
Test: Human GPR120 IP1 assay (inositol phosphate turnover)
Settings: IP1 accumulation in CHO-K1 cells stably expressing the short form of human GPR120
PROPERTY LABEL: EC50 (nM)

[P] Oc1cc(-c2cnc(O[C@H]3C[C@@](F)(c4ccc(Cl)cc4)C3)cn2)on1 [Example 108]
[Q] Oc1cc(-c2cnc(O[C@H]3C[C@@H](c4ccc(F)cc4)C3)nc2)on1 [Example 112]
[R] CCOc1ccc([C@H]2C[C@@H](Oc3ccc(-c4cc(O)no4)cn3)C2)cn1 [Example 22]
Rank by EC50 (largest to smallest). Answer format: list of labels, ordered as asked.
Q, R, P
(Q: 647 nM, R: 92 nM, P: 14 nM)
